Molecular target: full-length human BTK (Homo sapiens, UniProt Q06187)
Sequence (Q06187 whole entry): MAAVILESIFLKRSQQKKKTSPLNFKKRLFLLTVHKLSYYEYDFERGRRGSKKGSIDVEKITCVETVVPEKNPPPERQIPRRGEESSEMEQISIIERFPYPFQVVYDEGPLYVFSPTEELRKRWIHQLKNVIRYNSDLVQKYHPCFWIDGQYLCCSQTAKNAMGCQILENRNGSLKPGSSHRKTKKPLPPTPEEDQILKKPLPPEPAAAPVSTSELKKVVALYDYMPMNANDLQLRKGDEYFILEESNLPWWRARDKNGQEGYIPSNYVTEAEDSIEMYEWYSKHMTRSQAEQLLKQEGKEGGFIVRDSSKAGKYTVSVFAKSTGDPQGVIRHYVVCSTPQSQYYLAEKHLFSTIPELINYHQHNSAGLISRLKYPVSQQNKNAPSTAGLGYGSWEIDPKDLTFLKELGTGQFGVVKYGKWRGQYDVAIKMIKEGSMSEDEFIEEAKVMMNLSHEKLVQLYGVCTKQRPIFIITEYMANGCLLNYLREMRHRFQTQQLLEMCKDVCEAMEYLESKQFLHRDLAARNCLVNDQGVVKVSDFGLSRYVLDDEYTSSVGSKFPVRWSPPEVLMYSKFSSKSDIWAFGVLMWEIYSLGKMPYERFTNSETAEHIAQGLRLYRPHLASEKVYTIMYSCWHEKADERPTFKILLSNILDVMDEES
pIC50: −log10 of the molar value.
MEASURED_QUANTITY: pIC50

[ask] Assign pIC50 to the following record: N#CN1CCCCC1Cn1ccc2ncnc(Oc3ccc(Oc4ccccc4)cc3)c21 (centres unmarked) [Compound 62]
[reply] 5.30 to 6.00

[ask] Assign pIC50 to the following record: C/C=C/C(=O)N1CC(n2ccc3ncnc(Oc4ccc(Oc5ccccc5)cc4)c32)C1 [Compound 38]
[reply] 6.00 to 7.00

[ask] Assign pIC50 to the following record: N#CN1CC(Cn2ccc3ncnc(Oc4ccc(Oc5ccccc5)cc4)c32)C1 [Compound 66]
[reply] 5.30 to 6.00

[ask] Assign pIC50 to the following record: C=CC(=O)N1CCC(Cn2ccc3ncnc(Oc4ccc(Oc5ccccc5)cc4)c32)C1 (centres unmarked) [Compound 29]
[reply] > 7.00

[ask] Assign pIC50 to the following record: CN(C)C/C=C/C(=O)N1CCC(n2ncc3ncnc(Oc4ccc(Oc5ccccc5)cc4)c32)CC1 [Compound 14]
[reply] > 7.00

[ask] Assign pIC50 to the following record: C=CC(=O)N1CCCC(Cn2ccc3ncnc(-c4cccc(Oc5ccccc5)c4)c32)C1 (centres unmarked) [Compound 44]
[reply] 5.30 to 6.00

[ask] Assign pIC50 to the following record: C=CC(=O)N1CCC(n2ccc3ncnc(Oc4ccc(Oc5ccccc5)cc4)c32)CC1 [Compound 2]
[reply] > 7.00

[ask] Assign pIC50 to the following record: CN(C)C/C=C/C(=O)N1CC[C@H](n2ccc3ncnc(Oc4ccc(Oc5ccccc5)cc4)c32)C1 [Compound 18]
[reply] > 7.00

* * *

For reference, IC50 measured on full-length human BTK (Homo sapiens):

[ask] Assign IC50 to the following record: N#CN1CC2(CC(n3ccc4ncnc(Oc5ccc(Oc6ccccc6)cc5)c43)C2)C1 [Compound 69]
[reply] 1000 to 5000 nM

[ask] Assign IC50 to the following record: CC(C)=CC(=O)N1CC(n2ccc3ncnc(Oc4ccc(Oc5ccccc5)cc4)c32)C1 [Compound 49]
[reply] > 5000 nM

[ask] Assign IC50 to the following record: C=CC(=O)N1CC[C@@H](n2ccc3ncnc(Oc4ccc(Oc5ccccc5)cc4)c32)C1 [Compound 34]
[reply] 100 to 1000 nM

[ask] Assign IC50 to the following record: N#CN1CC[C@H](n2ccc3ncnc(Oc4ccc(Oc5ccccc5)cc4)c32)C1 [Compound 72]
[reply] < 100 nM

[ask] Assign IC50 to the following record: C=CC(=O)N1CC[C@H]1Cn1ccc2ncnc(Oc3ccc(Oc4ccccc4)cc3)c21 [Compound 25]
[reply] < 100 nM

[ask] Assign IC50 to the following record: CN(C)C/C=C/C(=O)N1CC(n2ccc3ncnc(Oc4ccc(Oc5ccccc5)cc4)c32)C1 [Compound 19]
[reply] < 100 nM

[ask] Assign IC50 to the following record: C=CC(=O)N1CCC(Cn2ccc3ncnc(-c4ccc(Oc5ccccc5)cc4)c32)CC1 [Compound 47]
[reply] > 5000 nM

[ask] Assign IC50 to the following record: N#CN1CCCC1Cn1ccc2ncnc(Oc3ccc(Oc4ccccc4)cc3)c21 (centres unmarked) [Compound 61]
[reply] 1000 to 5000 nM

* * *

Test system: anti-IgM-induced expression of CD69 in freshly isolated human peripheral blood mononuclear cells (PBMCs)
Test: Assay B: inhibition of anti-IgM-induced expression of CD69 on CD19 positive cells (B cells) in human PBMCs
Format: cell-based
Conditions: PBMC, 1 h pre-treatment, overnight anti-human IgM stimulation, CD69 on CD19 positive cells by flow cytometry, read-out: Assay B (mol/L (M))
MEASURED_QUANTITY: IC50

[ask] Assign IC50 to the following record: `C=CC(=O)N[C@H]1C[C@@H](n2ccc3ncnc(Oc4ccc(Oc5ccccc5)cc4)c32)C1`
[reply] 1e-07 to 1e-06 M

[ask] Assign IC50 to the following record: `N#CN1CC[C@H](n2ccc3ncnc(Oc4ccc(Oc5ccccc5)cc4)c32)C1`
[reply] 1e-07 to 1e-06 M

[ask] Assign IC50 to the following record: `C=CC(=O)N1CC(n2ccc3ncnc(Oc4ccc(Oc5ccccc5)cc4)c32)C1`
[reply] < 1e-07 M

[ask] Assign IC50 to the following record: `CN(C)C/C=C/C(=O)N1CC(n2ccc3ncc(-c4ccc(Oc5ccccc5)cc4)cc32)C1`
[reply] 1e-07 to 1e-06 M

[ask] Assign IC50 to the following record: N#CN1CCC(n2ccc3ncnc(Oc4ccc(Oc5ccccc5)cc4)c32)C1 (stereo not drawn)
[reply] 1e-07 to 1e-06 M

[ask] Assign IC50 to the following record: `O=C(CCCCCNc1ccc([N+](=O)[O-])c2nonc12)NCCN1CCN(C/C=C/C(=O)N2CC(n3ccc4ncnc(Oc5ccc(Oc6ccccc6)cc5)c43)C2)CC1`
[reply] 1e-06 to 5e-06 M

* * *

For reference, pIC50 measured on full-length human BTK (Homo sapiens):
pIC50: −log10 of the molar value.

[ask] Assign pIC50 to the following record: `N#CN1CCC(Cn2ccc3ncnc(Oc4ccc(Oc5ccccc5)cc4)c32)CC1`
[reply] < 5.30

[ask] Assign pIC50 to the following record: N#CN1CCC(n2ccc3ncnc(Oc4ccc(Oc5ccccc5)cc4)c32)C1 (stereo not shown)
[reply] > 7.00

[ask] Assign pIC50 to the following record: `C=CC(=O)N1CC(n2ccc3ncnc(Oc4ccc(Oc5ccccc5)cc4)c32)C1`
[reply] > 7.00

[ask] Assign pIC50 to the following record: `CN(C#N)[C@H]1CC[C@H](n2ccc3ncnc(Oc4ccc(Oc5ccccc5)cc4)c32)CC1`
[reply] 6.00 to 7.00

[ask] Assign pIC50 to the following record: `C=CC(=O)N1CC[C@@H]1Cn1ccc2ncnc(Oc3ccc(Oc4ccccc4)cc3)c21`
[reply] > 7.00

[ask] Assign pIC50 to the following record: `C=CC(=O)N[C@H]1CC[C@H](n2ccc3ncnc(Oc4ccc(Oc5ccccc5)cc4)c32)CC1`
[reply] 6.00 to 7.00

[ask] Assign pIC50 to the following record: `C=CC(=O)N[C@H]1C[C@@H](n2ncc3ncnc(Oc4ccc(Oc5ccccc5)cc4)c32)C1`
[reply] > 7.00

[ask] Assign pIC50 to the following record: `C=C(C)C(=O)N1CC(n2ccc3ncnc(Oc4ccc(Oc5ccccc5)cc4)c32)C1`
[reply] < 5.30

[ask] Assign pIC50 to the following record: C=CC(=O)N1CCCC(Cn2ccc3ncnc(Oc4ccc(Oc5ccccc5)cc4)c32)C1 (stereo not shown)
[reply] > 7.00

[ask] Assign pIC50 to the following record: `CN(C)C/C=C/C(=O)N[C@H]1C[C@H](n2ccc3ncnc(Oc4ccc(Oc5ccccc5)cc4)c32)C1`
[reply] 6.00 to 7.00

[ask] Assign pIC50 to the following record: N#CN1CCC(Cn2ccc3ncnc(Oc4ccc(Oc5ccccc5)cc4)c32)C1 (stereo not shown)
[reply] 5.30 to 6.00

[ask] Assign pIC50 to the following record: `C=CC(=O)N1CC(Cn2ccc3ncnc(Oc4ccc(Oc5ccccc5)cc4)c32)C1`
[reply] > 7.00

[ask] Assign pIC50 to the following record: `C=CC(=O)N1CC(n2ccc3ncc(-c4ccc(Oc5ccccc5)cc4)cc32)C1`
[reply] > 7.00
